Test system: human plasma
Assay: Ultracentrifugation (UC) plasma protein binding assay, fraction unbound in plasma (fup)
Settings: fraction unbound in human plasma, ultracentrifugation; some values based on eLOQ
Mean fu vs 0.1: less than gives 1; not less than gives -1.

> print(dat)
                                   compound  system.under.test  category
1  FC(F)(F)C(F)(F)CNCC(F)(F)C(F)(F)F [Bis(1H,1H-perfluoropropyl)amine]       human plasma         1
2  OCCC(F)(F)C(F)(F)C(F)(F)C(F)(F)C(F)(F)C(F)(F)C(F)(F)C(F)(F)F [8:2 Fluorotelomer alcohol]       human plasma         1
3  OCC(F)(F)C(F)(F)C(F)(F)C(F)(F)C(F)(F)C(F)F       human plasma         1
4  NC(=O)C(F)(F)C(F)(F)C(F)(F)C(F)(F)C(F)(F)C(F)(F)C(F)(F)F [Perfluorooctanamide]       human plasma         1

Ask: State whether 0.1 exceeds Mean fu recorded for C=C(C)C(=O)OCCC(F)(F)C(F)(F)C(F)(F)C(F)(F)C(F)(F)C(F)(F)F [6:2 Fluorotelomer methacrylate] .
Reply: -1

Ask: Find out if reported Mean fu for OCC(F)(F)C(F)(F)C(F)(F)C(F)F [1H,1H,5H-Perfluoropentanol] is less than 0.1
Reply: -1

Ask: Answer whether the compound OCCCCC(F)(F)C(F)(F)C(F)(F)C(F)(F)F [4:4 Fluorotelomer alcohol] has Mean fu strictly less than 0.1
Reply: 1

Ask: Dear colleague, could you confirm whether Mean fu of NCC(F)(F)C(F)(F)C(F)(F)C(F)(F)C(F)(F)C(F)(F)C(F)(F)F [1H,1H-Perfluorooctylamine] falls below 0.1? Thanks.
Reply: -1

Ask: Report whether reported Mean fu is lower than 0.1 (strictly) for NCC(F)(F)C(F)(F)C(F)(F)C(F)(F)C(F)(F)C(F)(F)F [1H,1H-Perfluoroheptylamine]
Reply: -1

Ask: Hello, is Mean fu of the following compound strictly smaller than 0.1? NCC(F)(F)C(F)(F)C(F)(F)C(F)(F)C(F)(F)C(F)(F)C(F)(F)C(F)(F)F [1H,1H-Perfluorononylamine]
Reply: 1

Ask: Decide: Mean fu of N=C(N)C(F)(F)C(F)(F)C(F)(F)C(F)(F)C(F)(F)C(F)(F)C(F)(F)F [Perfluorooctanamidine] strictly below 0.1?
Reply: 1

Ask: Quick check: Mean fu of FC(F)(F)C(F)(F)C(F)(F)C(F)(F)C(F)(F)C(F)(F)C(F)(F)CCI [1-Iodo-1H,1H,2H,2H-perfluorononane] under 0.1?
Reply: -1

Ask: Find out if reported Mean fu for OCCCC(F)(F)C(F)(F)C(F)(F)C(F)(F)C(F)(F)C(F)(F)C(F)(F)F [7:3 Fluorotelomer alcohol] is less than 0.1
Reply: 1

Ask: For this compound, is Mean fu lower than 0.1? OCC(F)(F)C(F)(F)C(F)(F)CO [Hexafluoroamylene glycol]
Reply: -1

Ask: Consider FC(F)(F)COC(OCC(F)(F)F)OCC(F)(F)F [tris(Trifluoroethoxy)methane] . Does its Mean fu lie strictly below 0.1?
Reply: -1

Ask: In the record for "CN(C(=O)C(F)(F)C(F)(F)C(F)(F)F)[Si](C)(C)C" , is Mean fu less than 0.1?
Reply: -1

Ask: # strict comparison: is reported Mean fu < 0.1? input = OCC(F)(F)C(F)(F)C(F)(F)C(F)(F)C(F)(F)C(F)(F)C(F)(F)C(F)(F)C(F)(F)C(F)(F)C(F)(F)F [11:1 Fluorotelomer alcohol]
Reply: 1

* * *

Task for the reader: assign each of the following molecules its reported Mean Stability.
Test system: human plasma
Assay: Chemical stability in plasma over the UC assay time course (T5hr/T1hr)
Conditions: mean T5hr/T1hr ratio over all replicates and runs, plasma
One number for each entry.

Use the examples below as a reference point.
> print(dat)
                                   molecule  measured
1  CN(C(=O)C(F)(F)C(F)(F)C(F)(F)F)[Si](C)(C)C     0.935
2  OCC(F)(F)C(F)(F)C(F)(F)C(F)(F)C(F)(F)C(F)F     0.875

# batch size: 2; output Mean Stability per entry
1. OCC(F)(F)C(F)(F)C(F)(F)C(F)(F)C(F)(F)C(F)(F)CO
2. N=C(N)C(F)(F)C(F)(F)C(F)(F)C(F)(F)C(F)(F)C(F)(F)C(F)(F)F

Reply:
1: 0.997; 2: 0.892

// for each molecule below, give its Mean Stability
1. Cc1ccc(S(=O)(=O)OCC(F)(F)C(F)(F)C(F)(F)C(F)(F)C(F)(F)C(F)F)cc1
2. OCC(F)(F)C(F)(F)C(F)(F)CO
3. FC(F)(F)C(F)(F)C(F)(F)C(F)(F)CCI [1H,1H,2H,2H-Perfluorohexyl iodide]
4. O=C(CC(=O)C(F)(F)C(F)(F)C(F)(F)F)c1cccs1
5. OCCCC(F)(F)C(F)(F)C(F)(F)F

Reply:
1.006
0.996
0.928
1.278
0.892

* * *

Experiment: in vitro
Settings: both, human, plasma, Fraction Unbound (fu), replicate A, individual replicate A of the UC run dated in c8
parameter-measured: fraction unbound
Answers are plain numbers.

Each of the following entries comes with a recorded value; kindly state fraction unbound for each.
1. NC(=O)C(F)(F)C(F)(F)C(F)(F)C(F)(F)F [Nonafluoropentanamide]
2. NC(=O)C(F)(F)C(F)(F)C(F)(F)C(F)(F)C(N)=O [Octafluoroadipamide]
3. NC(=O)C(F)(F)C(F)(F)C(F)(F)F [Heptafluorobutyramide]

Reply:
1. 0.228
2. 0.704
3. 0.667

* * *

So I've got a bunch of molecules here, and I need their half-life at 1 μM values.
Assay: Abiotic loss in negative controls of the hepatocyte clearance assay (cell-free media, metabolically inactivated hepatocytes)
Type: in vitro ADME
Conditions: buffer
Description: The hepatic metabolic stability assay measures the loss of a parent compound over time in a substrate-depletion approach. […] At each time point, relevant plates were crashed with an equal volume of ice-cold acetonitrile, centrifuged, and supernatant transferred to a new plate prior to storage at <−70 °C until quantitative analysis. […]
Give bare numbers, in h.

> print(dat)
                                   molecule  unit.tag  measured
1  NC(=O)C(F)(F)C(F)(F)F [Pentafluoropropionamide]         h      3.02
2  OCC(F)(F)OC(F)(F)C(F)(F)OC(F)(F)C(F)(F)OC(F)(F)CO         h      5.28

Ask: Given "OCC(F)(F)OC(F)(F)C(F)(F)OC(F)(F)CO" , state its recorded half-life at 1 μM.
Reply: 6.95

* * *

Test: Chemical stability in plasma over the UC assay time course (T5hr/T1hr)
Settings: both, human, plasma
Exercise: for every item that follows, state its recorded remaining at 5 h, 10 μM.
Answers are plain numbers, in %.

> print(dat)
                  molecule       parameter.measured  unit.tag  measured
1  NC(O)(C(F)(F)F)C(F)(F)F  remaining at 5 h, 10 μM         %        76

Continue with the molecule presented below.
Ask: So what's the measured remaining at 5 h, 10 μM for this one? FC(F)C(F)(F)COCC1CO1 (centres unmarked)
Reply: 66

* * *

Test: In vitro-in vivo extrapolation (IVIVE) to Css and administered equivalent dose (AED)
Parameters: species or system human
Settings: administered equivalent dose from LOEC and Css
Experimental: Using the experimentally generated PPB (fraction unbound in plasma, fup) and hepatic Clint data, IVIVE was performed as previously described to calculate human steady-state plasma concentrations (Css). Briefly, experimental measures of fup are adjusted using blood:plasma partitioning information to estimate the fraction unbound in blood (fub). Experimental hepatocyte Clint data are scaled up to represent whole-liver clearance (L/h). […]
Consider the following molecules; for each one, report its AED.
Give bare numbers, in mg/kg/day.

Give measured AED for every item shown.
1. Cc1ccc(S(=O)(=O)OCC(F)(F)C(F)(F)C(F)(F)C(F)(F)C(F)(F)C(F)F)cc1
2. NC(=O)C(F)(F)C(F)(F)C(F)(F)C(F)(F)F [Nonafluoropentanamide]
3. O=S(=O)([O-])C(F)(F)C(F)(F)C(F)(F)C(F)(F)C(F)(F)C(F)(F)C(F)(F)C(F)(F)F.[K+] [Potassium perfluorooctanesulfonate, reference compound]
4. NC(=O)C(F)(F)C(F)(F)C(F)(F)C(F)(F)C(N)=O [Octafluoroadipamide]
5. OCC(F)(F)C(F)(F)C(F)(F)CO
6. OCC(F)(F)OC(F)(F)C(F)(F)OC(F)(F)C(F)(F)OC(F)(F)CO
7. NC(=O)C(F)(F)C(F)(F)F [Pentafluoropropionamide]
8. OCC(F)(F)C(F)(F)C(F)(F)C(F)(F)C(F)(F)C(F)(F)C(F)(F)C(F)(F)CO [1H,1H,10H,10H-Perfluorodecane-1,10-diol]

Reply:
1: 0.6995; 2: 31.0338; 3: 0.2229; 4: 5.8401; 5: 0.9667; 6: 1.3364; 7: 7.4314; 8: 1.3619
